Data origin, for the record: patent US20040014191A1

Listed next: entries and their corresponding CB 1954 product.
ASSAY: Nitroreductase enzyme assay with CB 1954 as substrate (HPLC)
Assay type: biochemical
REPORTED CONDITIONS: Table 6, recombinant enzymes

- MOLECULE: "C. jejuni NfnB: nitroreductase from Campylobacter jejuni, SEQ ID NO: 23 (protein, listed as Campylobacter jejuni) MKKELEIFSTRYSCRNFKNEKLKKEDLNSILEIARLSPSSLGLEPWKFIVVQDEKRKEELSKICNQQKHVKDCAALIIIISRLDFLDYFEEKLRKRDMSETEMQKRLDTYMPFLKSLNQEQKISYAREQAHIALASILYSANALNIASCTIGGFDKEKLDSYLSLDIQKERSSLVVALGYCNDKKNPQKNRFSFDEVVKFI"
  READOUT UNIT: "HX"
  CB 1954 product: 4
- MOLECULE: "P. gingivalis YwrO: nitroreductase from Porphyromonas gingivalis, SEQ ID NO: 25 (protein, listed as Porphyromonas gingivalis) MKKTLVIVVHPDLTKSVINKAWAKAIEGAATIHHLYEQYPNGQIDLAHEQALLEAHDRIVFQFPLYWYAAPYLLKKWMDEVFTEGWAYGAGGDKMEGKEICAAVSCGSPKSAFAEGAQQCHTLRSYLNVFDGIAAFLRARFTGYHACYDSYNPRLPEMLPANCEAYLRFIKGE"
  READOUT UNIT: "HX"
  CB 1954 product: 4
- MOLECULE: "YdgI (Bacillus subtilis subsp. subtilis str. 168) (protein, made in house; host or cells: E. coli (pMTL1015; HMS174)) MIKTNDFMEIMKGRRSIRNYDPAVKISKEEMTEILEEATTAPSSVNAQPWRFLVIDSPEGKEKLAPLASFNQTQVTTSSAVIAVFADMNNADYLEEIYSKAVELGYMPQEVKDRQIAALTAHFEKLPAQVNRETILIDGGLVSMQLMLTARAHGYDTNPIGGYDKENIAETFGLDKERYVPVMLLSIGKAADEGYASYRLPIDTIAEWK"
  READOUT UNIT: "HX"
  CB 1954 product: 4
- MOLECULE: "Synechocystis: nitroreductase from Synechocystis sp PCC 6803, SEQ ID NO: 19 (protein, Synechocystis PCC6803) MDTFDAIYQRRSVKHFDPDHRLTAEEERKLHEAAIQAPTSFNIQLWRFLIIRDPQLRQTIREKYGNQAQMTDASLLILVAADVNAWDKDPARYWRNAPREVANYLVGAIAFYGGKPQLQRDEAQRSIGMAMQNLMLAAKAMGYDSCPMIGFDLQKVAELVKLPADYAIGPMVAIGKRTEDARAKGGQTPLEELVWENSFA"
  READOUT UNIT: "HX"
  CB 1954 product: 2
- MOLECULE: "YodC: nitroreductase from B. subtilis, SEQ ID NO: 12 (coded for by SEQ ID NO: 11) (protein, listed as Bacillus subtilis) MTNTLDVLKARASVKEYDTNAPISKEELTELLDLATKAPSAWNLQHWHFTVFHSDESKAELLPVAYNQKQIVESSAVVAILGDLKANENGEEVYAELASQGYITDEIKQTLLGQINGAYQSEQFARDSAFLNASLAAMQLMIAAKAKGYDTCAIGGFNKEQFQKQFDISERYVPVMLISIGKAVKPAHQSNRLPLSKVSTWL"
  READOUT UNIT: "HX"
  CB 1954 product: 4
- MOLECULE: "H. influenzae NfnB: nitroreductase from H. influenzae, SEQ ID NO: 17 (protein, listed as Haemophilus influenzae) MTQLTREQVLELFHQRSSTRYYDPTKKISDEDFECILECGRLSPSSVGSEPWKFLVIQNKTLREKMKPFSWGMINQLDNCSHLVVILAKKNARYDSPFFVDVMARKGLNAEQQQAALTKYKALQEEDMKLLENDRTLFDWCSKQTYIALANMLTGASALGIDSCPIEGFHYDKMNECLAEEGLFDPQEYAVSVAATFGYRSRDIAKKSRKGLDEVVKWVG"
  READOUT UNIT: "HX"
  CB 1954 product: 4
